Each entry below carries its reported melting point.

As a guide, the following entries are already answered.
>>> observed_result("COc1ccc(C(=O)Nc2cc(-c3c(-c4ccc(F)c(C)c4)nc4cccnn34)ccn2)c(C)c1 [Example 42-18]")
"200 to 202 °C"
>>> observed_result("CC(=O)Nc1cc(-c2c(-c3cccc(C)c3)nc3cccnn23)ccn1 [Example Compound 20-7]")
"227 to 228 °C"
>>> observed_result("Cc1cc(-c2nc3cccnn3c2-c2ccnc(NC(=O)N3CCC(O)CC3)c2)ccc1F.Cl")
"156 to 157 °C"
>>> observed_result("Cc1cc(-c2nc3c(C)cc(Cl)nn3c2-c2ccnc(N)c2)ccc1F [Example Compound 36-1]")
"218 to 219 °C"
>>> observed_result("Cc1cc(-c2nc3cccnn3c2-c2ccnc(NC(=O)c3ccc(Cl)cc3)c2)ccc1F.Cl")
"264 to 266 °C"

// sample Cc1cc(-c2nc3cccnn3c2-c2ccnc(NC(N)=O)c2)ccc1F [Example 51-9] , its melting point was 254 to 255 °C

// sample CSc1ccc(NC(=O)Nc2cc(-c3c(-c4ccc(F)c(C)c4)nc4cccnn34)ccn2)cc1 [Example 51-6] , its melting point was 219 to 220 °C

// sample CCNC(=O)Nc1cc(-c2c(-c3ccc(F)c(C)c3)nc3c(C)ccnn23)ccn1 [Example 48-3] , its melting point was 240 to 241 °C

// sample Cc1cccc(-c2nc3cccnn3c2-c2ccnc(NCC(C)(C)C)c2)c1 [Example compound 6-18] , its melting point was 157 to 158 °C
